system_name: T1, human IL-15 (hIL-15+hIL-15Rα complex), tag on IL-15Rα not stated (human (homo sapiens), UniProt P40933 49-162; Q13261 31-128)
T1 construct: Co-expressed complex (superagonist) of human IL-15 and human IL-15Rα made in HEK293 cells; also called human IL-15 (IL-15+IL-15Rα complex); IL-15+IL-15Rα complex
assay_procedure: SPR (Biacore T200), as in Example 2.2
outcome_measure: Kd (pM)
Give the number; pM is assumed, so skip it.

Inquiry: Quick one: Kd of anti-human IL-15 monoclonal antibody R26H10 (antibody, V domains shown, Humanized mutant of R6E11 with a fully human light chain; captured by anti-human IgG (Fc) in SPR and detected with anti-human IgG in ELISA) VH: QVTLKESGPVLVKPTETLTLTCTVSGFSLTTYAVHWIRQPPGKALEWLGVIWGAGSTDYNPSFMSRLTISKDTSKSQVVLTMTNMDPVDTATYYCAKNAAYYVMDYWGQGTTVTVSS VL: EIVLTQSPGTLSLSPGERATLSCRASQSVIYSYLAWYQQKPGQAPRLLIYAASKLASGIPDRFSGSGSGTDFTLTISRLEPEDFAVYYCQQRASYPLTFGQGTKVEIK ?
Reply text: 1130

Inquiry: Quick one: Kd of anti-human IL-15 monoclonal antibody R2H2VH+R22F11VK (antibody, V domains shown, Mutant of R1A3; it was captured by anti-human IgG (Fc) in SPR and detected with anti-human IgG in ELISA, so a human Fc is implied; also called R2H2VH+R22FVK) VH: EVQLVQSGAEVKKPGESLKISCKVSGYFFTTYWIGWVRQMPGKGLEYMGIIYPGDSDTRYSPSFQGQVTISADKSISTAYLQWSSLKASDTAMYYCARGGHWNSFDTWGQGTLVTVSS VL: EIVLTQSPGTLSLSPGERATLSCRASQSVIGSYLAWYQQKPGQAPRLLIYSASKLASGIPDRFSGSGSGTDFTLTISRLEPEDFAVYYCQQHYSTPGTFGQGTKVEIK ?
Reply text: 570

Inquiry: Quick one: Kd of anti-human IL-15 monoclonal antibody R4G4VH+R22F11VK (antibody, V domains shown, Mutant of R1A3; it was captured by anti-human IgG (Fc) in SPR and detected with anti-human IgG in ELISA, so a human Fc is implied; also called R4G4VH+R22FVK) VH: EVQLVQSGAEVKKPGESLKISCKVSGYFFTTYWIGWVRQMPGKGLEYMGIIYPGDSDTRYSPSFQGQVTISADKSISTAYLQWSSLKASDTAMYYCARGGHWNAFDIWGQGTLVTVSS VL: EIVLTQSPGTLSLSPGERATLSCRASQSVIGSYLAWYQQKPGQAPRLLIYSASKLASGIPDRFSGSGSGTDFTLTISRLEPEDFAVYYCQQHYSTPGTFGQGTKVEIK ?
Reply text: 435

Inquiry: Quick one: Kd of anti-human IL-15 monoclonal antibody R1A3 (antibody, V domains shown, Found from a fully human Fab phage library) VH: EVQLVQSGAEVKKPGESLKISCKVSGYFFTTYWIGWVRQMPGKGLEYMGIIYPGDSDTRYSPSFQGQVTISADKSISTAYLQWSSLKASDTAMYYCARGGHWNAFDFWGQGTLVTVSS VL: EIVLTQSPGTLSLSPGERATLSCRASQSVSSSYLAWYQQKPGQAPRLLIYGASRRATGIPDRFSGSGSGTDFTLTISRLEPEDFAVYYCQQFDASQTFGQGTKLEISR ?
Reply text: 612
